Each recorded value in this set is attributed to PubChem BioAssay (EPA / NIEHS).

Experimental Protocol: APR_HepG2_p53Act_24hr: Apredica 24-hour HepG2 Assay for p53 Activation (AID 2282913);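 also: p53 protein immunofluorescence averaged per cell in HepG2 with Hoechst nuclei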
Settings: high-content imaging, actives raise or lower the signal
Procedure: APR_HepG2_24hr is a cell-based, multiplexed-readout assay that uses HepG2, a human liver cell line, with measurements taken at 24 hours after chemical dosing in a 384-well plate.APR_HepG2_p53Act_24hr is one of 10 assay component(s) measured or calculated from the APR_HepG2_24hr assay. […] This assay endpoint, APR_HepG2_p53Act_24hr, was analyzed with bidirectional fitting relative to DMSO as the negative control and baseline of activity. […]
The source made the active and inactive calls. The calls were made as follows: active = hit-call score of the fitted dose curve at least 0.9, where 1 is the maximum; inactive = score below 0.9.
Use one of these outcomes when replying: active, inactive

>  <Compound>
CN(C)C=O

>  <Label>
inactive

$$$$
>  <Compound>
CCCCC(CC)COC(=O)CCCCC(=O)OCc1ccccc1 (stereo not drawn)

>  <Label>
inactive

$$$$
>  <Compound>
CN1CCN(c2ccccc2/C=C2\SCCN(c3ccc(Cl)c(Cl)c3)C2=O)CC1

>  <Label>
active

$$$$
>  <Compound>
O=[N+]([O-])c1ccc(O)cc1

>  <Label>
inactive

$$$$
>  <Compound>
C=C(C)C(=O)OCCC(F)(F)C(F)(F)C(F)(F)C(F)(F)C(F)(F)C(F)(F)F

>  <Label>
inactive

$$$$

Query block: Fill in: this test's call for COC(=O)CCCCC(=O)OC is ___
Result block: inactive

Query block: I'd appreciate the recorded outcome for CC(C)(C)c1cc(C(C)(C)C)c(O)c(C(C)(C)C)c1 from this test.
Result block: inactive

Query block: Could you check what this test reported for C[C@@H]1C[C@H]2[C@@H]3CCC4=CC(=O)C=C[C@]4(C)[C@@]3(F)[C@@H](O)C[C@]2(C)[C@@]1(O)C(=O)COP(=O)(O)O ?
Result block: active

Query block: Answer briefly: the call reported for CC(=O)NC1(c2cccc(F)c2)CCN(CC[C@@]2(c3ccc(Cl)c(Cl)c3)CN(c3ccccc3)C(=O)CO2)CC1 in this assay.
Result block: active

Query block: Field: outcome | Entry: O=C(/C=C/c1ccc(O)cc1)CC(=O)/C=C/c1ccc(O)cc1
Result block: inactive

Query block: Give the logged outcome of this assay for the following compound: ClC1=C(Cl)C(Cl)(Cl)C(Cl)=C1Cl
Result block: inactive

Query block: What was the test verdict on CCc1nn(C2CCCCC2)c2cc(C3(C#N)CCC(C(=O)O)CC3)ccc12 (stereo not drawn) ?
Result block: inactive

Query block: Given CCCCCCCCC(=O)O , state the outcome it received in this test.
Result block: inactive

Query block: Recorded test call requested for CC#C[C@]1(O)CC[C@H]2[C@@H]3CCC4=CC(=O)CCC4=C3[C@@H](c3ccc(N(C)C)cc3)C[C@@]21C
Result block: inactive

Query block: What classification did CC(C)(C)CC(C)(C)c1ccc(O)c(-n2nc3ccccc3n2)c1 end up with in this test?
Result block: active

Query block: For CCCOc1sc(C(=O)N2CCC(c3cc(CN)ccc3F)CC2)c(C)c1Br , what call appears in the results of this test?
Result block: active

Query block: How did this test come out for Oc1cccc(O)c1 ?
Result block: inactive

Query block: Kindly provide the recorded test outcome for the following compound: CCc1ccc(CCOc2ccc(CC3SC(=O)NC3=O)cc2)nc1 (stereo not drawn)
Result block: inactive
